assayed-system: T1, P2-AA-1HAA-D
T1 chain: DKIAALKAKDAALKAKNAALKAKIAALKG
measurement-notes: two-hybrid library CCmax;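 note: natural log of median RNA to DNA barcode read ratio; higher means stronger binding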
settings: mean of both orientations
recorded-metric: interaction score
In your answer, state the number alone without any accompanying words.

binder	recorded-metric	recorded-measurement
DEIAALEAEKAALEAENAALEAEIAALEG [P1-AA-1HAA-K]	interaction score	0.24
DEIAALEAEYAALEAENAALEAEIAALEG [P1-AA-1HAA-Y]	interaction score	0.371
DEIAALEAEDAALEAENAALEAEIAALEG [P1-AA-1HAA-D]	interaction score	0.443

Query :: Entry under review: DEIAALEAESAALEAENAALEAEIAALEG [P1-AA-1HAA-S] . Reported interaction score?
Result :: 1.28

Query :: Entry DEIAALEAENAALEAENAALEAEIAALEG [P1-AA] : reported interaction score = ?
Result :: 1.71

Query :: Consider the binder shown here: DEIAALEAETAALEAENAALEAEIAALEG [P1-AA-1HAA-T] What is its recorded interaction score?
Result :: 1.99

Query :: Find the recorded interaction score belonging to DEIAALEAELAALEAENAALEAEIAALEG [P1-AA-1HAA-L] and report it.
Result :: 1.71
